The origin of these recorded values is patent US20090053750A1.

target: T1, class I MHC receptor HLA-A2 on T2 cells (human); assay: T2 cells, anti-HLA-A2 flow cytometry after brefeldin A; Assay #1; 18 hr
T1 construct: detected on the cell surface with a mouse anti-human HLA-A2 monoclonal antibody and goat anti-mouse IgG F(ab')2-FITC; also called HLA-A2 receptor; HLA-A2 class I MHC
Measurement type: fluorescence index (F.I.)
// units = F.I.; emit number, no label

Some solved entries appear below for comparison.
>>> print(df.to_string())
                             binder  experimental_result
0  SLQESGLKV [Filamin B peptide #4]                  1.1
1  GQGDVMVFV [Filamin B peptide #6]                  1.1
2  GLAPLEVRV [Filamin B peptide #3]                  3.1
3  KLILGLVWT [Filamin B peptide #7]                 1.25

// query fluorescence index value for entry LILGLVWTL [Filamin B peptide #1]
2.45
